So I've got a bunch of binders here, and I need their pIC50 values.
- target_desc: T1, PVRIG (FACS-based competition assay of FIGS. 7 and 15) (Homo sapiens, UniProt Q6DKI7)
- T1 construct: made because the format of the assay is only described in U.S. Ser. No. 15/048,967; also called human PVRIG
- T1 sequence (receptor, looked up): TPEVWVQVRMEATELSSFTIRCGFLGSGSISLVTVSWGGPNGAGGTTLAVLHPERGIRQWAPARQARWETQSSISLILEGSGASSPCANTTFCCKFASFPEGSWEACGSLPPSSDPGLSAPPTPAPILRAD
- assay_name: FACS-based competition assay of PVRIG blocking; format and competitor not given
The quantity pIC50 is defined as the negative base-10 logarithm of the molar concentration.

Ask: Provide only the value of recorded pIC50 for CHA.7.510 (antibody, V domains shown) VH: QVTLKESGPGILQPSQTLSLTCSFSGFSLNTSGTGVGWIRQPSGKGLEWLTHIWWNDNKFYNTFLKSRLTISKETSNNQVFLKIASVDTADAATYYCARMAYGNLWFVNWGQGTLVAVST VL: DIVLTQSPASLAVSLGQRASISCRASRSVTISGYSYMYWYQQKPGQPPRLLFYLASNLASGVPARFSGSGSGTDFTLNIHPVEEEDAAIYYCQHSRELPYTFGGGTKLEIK
Result: 7.26

Ask: Hello, please tell me recorded pIC50 for this one: CHA.7.502 (antibody, V domains shown) VH: DVQLVESGGDLVQPGGSRKLSCTASGFTFSNFGMHWVRQAPEKGLEWVAYISSGSSTIYYADTVKGRFTISRDNPENTLFLQMTSLRSEDTAMYYCTRLDYYTNSYSMDHWGQGTSVTVSS VL: QIVLTQSPALMSASPGEKVTLTCSASSSLPYIYWYQQKPGSSPKPWIYLTSNLASGVPARFSGSRSGTSYSLTISSVEAEDAATYYCQQWSSNPFTFGSGTKLEIK
Result: 7.40

Ask: Provide one value: measured pIC50 of CHA.7.528 (antibody, V domains shown) VH: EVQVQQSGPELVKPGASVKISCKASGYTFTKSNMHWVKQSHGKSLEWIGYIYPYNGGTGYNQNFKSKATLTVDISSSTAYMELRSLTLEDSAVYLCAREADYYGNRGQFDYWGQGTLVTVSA VL: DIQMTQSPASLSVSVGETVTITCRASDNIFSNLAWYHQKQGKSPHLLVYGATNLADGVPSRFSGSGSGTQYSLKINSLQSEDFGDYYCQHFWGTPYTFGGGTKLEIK
Result: 7.54

Ask: Give reported pIC50 value for CHA.7.514 (antibody, V domains shown) VH: EVQLRQSGADLVKPGASVKLSCTASGFNIKDTYIDWVKQRPEQGLDWIGRIDPANGNTKYDPKFQGKATIITDTSSNTAYLQLSNLTSEDTAVYYCARYGSYPYFDYWGRGTTLAVSS VL: SIVMTQTPKFLLISAGDRVTITCKASQSVRNDVAWYQQKPGQSPKLLMYYASNRYTGVPDRFTGSGYGTDFTFTISTVQAEDLAVYFCQQDYSSPPTFGGGTKLEIK
Result: 7.41

Data credit: patent US20240075137A1
